subjectOfTest: NEK7 (human) (UniProt Q8TDX7)
Sequence (Q8TDX7 whole entry, looked up): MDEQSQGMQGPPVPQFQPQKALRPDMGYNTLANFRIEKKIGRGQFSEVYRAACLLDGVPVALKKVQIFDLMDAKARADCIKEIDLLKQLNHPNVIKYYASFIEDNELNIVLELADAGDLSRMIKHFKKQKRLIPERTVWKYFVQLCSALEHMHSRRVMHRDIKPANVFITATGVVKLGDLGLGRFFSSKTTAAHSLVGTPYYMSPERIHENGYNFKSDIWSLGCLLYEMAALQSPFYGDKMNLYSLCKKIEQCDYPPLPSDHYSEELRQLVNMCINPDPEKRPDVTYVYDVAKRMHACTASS
assayInfo: KINOMEscan competition binding
assayConditions: compound 10.0 µM
experimentalEndpoint: kinase still bound, per cent of control (%)
Please give a number only; it is taken to be in %.

[[record]]
smilescode = "C=CC(=O)Nc1cc(-n2c(=O)ccc3cnc4ccc(-c5cn[nH]c5)cc4c32)ccc1C"
experimentalendpoint = "kinase still bound, per cent of control"
valueunits = "%"
measurement = 100

[[record]]
smilescode = "COc1cc(N2CCN(C)CC2)ccc1Nc1ncc2c(n1)N(C)c1ccccc1C(=O)N2C"
experimentalendpoint = "kinase still bound, per cent of control"
valueunits = "%"
measurement = 100

[[record]]
smilescode = "COc1cc2ncn(-c3cc(OCc4ccccc4C(F)(F)F)c(C(N)=O)s3)c2cc1OC"
experimentalendpoint = "kinase still bound, per cent of control"
valueunits = "%"
measurement = 74


// below: kinase still bound, per cent of control requested for another compound
For record CS(=O)(=O)N1CCN(Cc2cc3nc(-c4cccc5[nH]ncc45)nc(N4CCOCC4)c3s2)CC1 the listed kinase still bound, per cent of control is 100

###

Catalogue of compounds with associated kinase still bound, per cent of control
subjectOfTest: CSNK2A1 (human) (UniProt P68400)
Sequence (P68400 whole entry, looked up): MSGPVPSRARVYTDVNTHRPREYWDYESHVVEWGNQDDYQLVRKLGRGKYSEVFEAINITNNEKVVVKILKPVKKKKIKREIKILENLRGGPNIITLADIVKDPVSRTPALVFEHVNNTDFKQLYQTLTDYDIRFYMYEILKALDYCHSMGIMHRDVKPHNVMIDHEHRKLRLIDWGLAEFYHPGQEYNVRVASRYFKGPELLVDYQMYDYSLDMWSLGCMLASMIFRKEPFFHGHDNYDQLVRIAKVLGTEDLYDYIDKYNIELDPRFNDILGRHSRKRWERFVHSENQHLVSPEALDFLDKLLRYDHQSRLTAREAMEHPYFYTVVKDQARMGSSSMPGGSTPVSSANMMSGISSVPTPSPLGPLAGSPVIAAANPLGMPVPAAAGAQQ
assayInfo: KINOMEscan competition binding
assayConditions: compound 10.0 µM
The reply should contain only the number, in %.

[[record]]
smilescode = "C=CC(=O)Nc1cc(-n2c(=O)ccc3cnc4ccc(-c5cn[nH]c5)cc4c32)ccc1C"
experimentalendpoint = "kinase still bound, per cent of control"
valueunits = "%"
measurement = 4.6

[[record]]
smilescode = "CNC(=O)c1ccc(Nc2cc(Nc3ccccc3S(=O)(=O)C(C)C)c3cc[nH]c3n2)nc1"
experimentalendpoint = "kinase still bound, per cent of control"
valueunits = "%"
measurement = 4.4


Sample COc1cc(C(=O)N2CCC(N3CCN(C)CC3)CC2)ccc1Nc1ncc2c(n1)N(C)c1ccccc1C(=O)N2C ; kinase still bound, per cent of control observed: 100

###

subjectOfTest: ULK3 (human) (UniProt Q6PHR2)
Sequence (Q6PHR2 whole entry, looked up): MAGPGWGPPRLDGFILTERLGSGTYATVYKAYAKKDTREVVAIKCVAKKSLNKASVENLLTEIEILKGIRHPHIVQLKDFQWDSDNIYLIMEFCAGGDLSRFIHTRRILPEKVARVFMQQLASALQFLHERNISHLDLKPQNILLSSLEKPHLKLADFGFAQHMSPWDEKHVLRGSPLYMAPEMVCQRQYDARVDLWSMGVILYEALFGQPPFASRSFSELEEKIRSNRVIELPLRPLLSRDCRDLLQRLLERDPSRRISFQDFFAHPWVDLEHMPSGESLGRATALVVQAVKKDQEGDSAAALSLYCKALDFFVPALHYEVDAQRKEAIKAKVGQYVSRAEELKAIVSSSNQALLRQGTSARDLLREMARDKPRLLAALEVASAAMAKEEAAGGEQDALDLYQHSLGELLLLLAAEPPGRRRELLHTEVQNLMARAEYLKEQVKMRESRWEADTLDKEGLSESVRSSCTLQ
assayInfo: KINOMEscan competition binding
assayConditions: compound 10.0 µM
kinase still bound, per cent of control under 60% gets YES, anything at or over 60% gets NO.

Solved cases (10 shown):
[[record]]
smilescode = "C=CC(=O)Nc1ccc(CN(C(=O)Nc2c(Cl)c(OC)cc(OC)c2Cl)c2cc(Nc3ccc(N4CCN(C)CC4)cc3)ncn2)cc1"
labelclass = "NO"

[[record]]
smilescode = "NC(=O)Nc1cc(-c2cccc(F)c2)sc1C(=O)N[C@@H]1CCCNC1"
labelclass = "YES"

[[record]]
smilescode = "N#CCNC(=O)c1ccc(-c2ccnc(Nc3ccc(N4CCOCC4)cc3)n2)cc1"
labelclass = "YES"

[[record]]
smilescode = "CS(=O)(=O)N1CCN(Cc2cc3nc(-c4cccc5[nH]ncc45)nc(N4CCOCC4)c3s2)CC1"
labelclass = "NO"

[[record]]
smilescode = "COCC(=O)NC/C=C/c1ccc2ncnc(Nc3ccc(Oc4ccc(C)nc4)c(C)c3)c2c1"
labelclass = "NO"

[[record]]
smilescode = "CN(C)C/C=C/C(=O)Nc1ccc(C(=O)Nc2cccc(Nc3nccc(-c4cccnc4)n3)c2)cc1"
labelclass = "NO"

[[record]]
smilescode = "COc1cc(C(=O)N2CCC(N3CCN(C)CC3)CC2)ccc1Nc1ncc2c(n1)N(C)c1ccccc1C(=O)N2C"
labelclass = "NO"

[[record]]
smilescode = "C[C@@H](Oc1cc(-c2cnn(C3CCNCC3)c2)cnc1N)c1c(Cl)ccc(F)c1Cl"
labelclass = "YES"

[[record]]
smilescode = "O=c1cc(N2CCOCC2)oc2c(-c3cccc4c3sc3ccccc34)cccc12"
labelclass = "NO"

[[record]]
smilescode = "COc1cc2ncn(-c3cc(OCc4ccccc4C(F)(F)F)c(C(N)=O)s3)c2cc1OC"
labelclass = "NO"


Input line: Hi there! Is kinase still bound, per cent of control for COc1cc2ncnc(-n3nc(-c4ccccn4)nc3N)c2cc1OC below 60%, do you know?
Output line: YES

Input line: Strictly below 60% in kinase still bound, per cent of control? Cc1n[nH]c2ccc(-c3cncc(OC[C@@H](N)Cc4c[nH]c5ccccc45)c3)cc12
Output line: NO

Input line: Item CNC(=O)c1ccc(Nc2cc(Nc3ccccc3S(=O)(=O)C(C)C)c3cc[nH]c3n2)nc1 : kinase still bound, per cent of control beneath 60%, strictly?
Output line: YES

Input line: Does the reported kinase still bound, per cent of control of COc1cc(N2CCN(C)CC2)ccc1Nc1ncc2c(n1)N(C)c1ccccc1C(=O)N2C stay below 60%?
Output line: NO

Input line: API: query returns whether the compound falls strictly under 60% in kinase still bound, per cent of control. Query: CCN1CCN(C(=O)Cc2ccc(Nc3ncc(F)c(Nc4ccc(C(=O)Nc5ccccc5Cl)cc4)n3)cc2)CC1
Output line: YES

Input line: Is the reported kinase still bound, per cent of control for O=C(Nc1cccc(Nc2ncc(Br)c(NCCc3cnc[nH]3)n2)c1)N1CCCC1 strictly below 60%?
Output line: YES

Input line: API: query returns whether the compound falls strictly under 60% in kinase still bound, per cent of control. Query: CCN(CC)CCCCNc1ncc2c(n1)N(C)C(=O)N(c1c(Cl)c(OC)cc(OC)c1Cl)C2
Output line: NO

Input line: Take the compound C=CC(=O)Nc1cc(-n2c(=O)ccc3cnc4ccc(-c5cn[nH]c5)cc4c32)ccc1C and say whether its kinase still bound, per cent of control is less than 60%.
Output line: NO

Input line: Could you please tell me whether kinase still bound, per cent of control recorded for CNC(=O)c1cc(Oc2ccc(NC(=O)Nc3ccc(Cl)c(C(F)(F)F)c3)cc2)ccn1 is less than 60%?
Output line: NO

Input line: Determine whether this compound shows kinase still bound, per cent of control lower than 60% (ties excluded): O=C1NC(=O)/C(=C/c2ccc3nccc(-c4ccncc4)c3c2)S1
Output line: YES
